experimental_target: M1 muscarinic receptor (Rattus norvegicus, UniProt P08482)
Sequence (P08482 1-460): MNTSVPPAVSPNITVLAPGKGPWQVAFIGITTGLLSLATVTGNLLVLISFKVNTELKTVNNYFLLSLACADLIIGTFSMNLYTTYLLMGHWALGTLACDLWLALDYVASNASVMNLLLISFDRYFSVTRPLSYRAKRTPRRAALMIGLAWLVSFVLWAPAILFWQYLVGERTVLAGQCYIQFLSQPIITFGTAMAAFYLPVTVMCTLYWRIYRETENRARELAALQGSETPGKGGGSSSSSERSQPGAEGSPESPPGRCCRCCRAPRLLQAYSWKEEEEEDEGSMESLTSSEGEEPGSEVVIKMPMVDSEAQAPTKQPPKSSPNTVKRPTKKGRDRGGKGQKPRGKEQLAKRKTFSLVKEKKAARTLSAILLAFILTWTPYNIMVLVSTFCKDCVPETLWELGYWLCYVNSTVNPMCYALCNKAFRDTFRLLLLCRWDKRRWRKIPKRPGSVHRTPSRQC
experimental_protocol: Displacement of 3H-PZ from rat cerebral cortex, 10 mM phosphate buffer
Assay type: binding
Design: from tissue; host or cells: rat cerebral cortex homogenates
condition_summary: KH cerebellum (3H-QNB) : KH cortex (3H-PZ)
Classify as follows. Reported RATIOS c:a greater than or equal to 6: yes (1). Reported RATIOS c:a below: no (0).

                                   molecule                       experimental_target    label
0  c1ccc(C2=NCC3(CN4CCC3CC4)O2)cc1 (stereo not drawn)  M1 muscarinic receptor (Rattus norvegicus, UniProt P08482)  yes (1)
1  NC1=NCC2(CN3CCC2CC3)O1 (stereo not drawn)  M1 muscarinic receptor (Rattus norvegicus, UniProt P08482)  yes (1)
2         CCC1=NCC2(CN3CCC2CC3)O1 (racemic)  M1 muscarinic receptor (Rattus norvegicus, UniProt P08482)   no (0)
3  C[N+](C)(C)CC#CCN1CCCC1=O [Oxotremorine-M, reference compound]  M1 muscarinic receptor (Rattus norvegicus, UniProt P08482)   no (0)
4       C[N+](C)(C)CC#CCOC(=O)Nc1cccc(Cl)c1  M1 muscarinic receptor (Rattus norvegicus, UniProt P08482)  yes (1)
5                     CC1=NCC2(CCN(C)CC2)O1  M1 muscarinic receptor (Rattus norvegicus, UniProt P08482)  yes (1)

All figures here come from patent EP0452101B1.
